# assayRemarks: DSSTox (CPDBAS) Carcinogenic Potency Database Summary SingleCellCall Results
# assaySetup: animal chronic carcinogenicity bioassays, CPDB summary call
Active and inactive are the calls of the source.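 How the source made its calls: active means a tumor-causing dose value with its tumor site reported for any sex and species group of a rodent or other animal cancer study; inconclusive means only studies judged inadequate by the national testing program; inactive means tested in at least one study, none positive.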
Outcomes: active, inactive

{"compound": "COc1cccc2c1cc([N+](=O)[O-])c1c(C(=O)O)cc3c(c12)OCO3", "classAssignment": "active"}
{"compound": "O=c1ccc2ccccc2o1", "classAssignment": "active"}
{"compound": "O=C(O)CNCC(=O)O", "classAssignment": "inactive"}
{"compound": "C[C@@H]1CCC[C@H](C)N1CCCC(O)(c1ccccc1)c1ccccn1 (some centres undefined)", "classAssignment": "inactive"}
{"compound": "ON=C1CCCC1", "classAssignment": "active"}
{"compound": "S=C(NC1CCCCC1)NC1CCCCC1", "classAssignment": "inactive"}
{"compound": "CCOC(=O)N(C)N=O", "classAssignment": "active"}
{"compound": "Cn1cc(OCC(O)CNC(C)(C)C)c2ccccc2c1=O (centres undefined)", "classAssignment": "inactive"}
{"compound": "Clc1cnc(Oc2ccc(Oc3ncc(Cl)cc3Cl)cc2)c(Cl)c1", "classAssignment": "inactive"}
{"compound": "CN(N=O)C(=O)N[C@@H]1[C@@H](O)[C@H](O)[C@@H](CO)O[C@@H]1O", "classAssignment": "active"}
{"compound": "[O]=[Nb](=[O])[OH]", "classAssignment": "inactive"}
{"compound": "NNCCO", "classAssignment": "active"}
{"compound": "O=C(O)c1cc(O)c(O)c(O)c1", "classAssignment": "inactive"}
{"compound": "Cc1ccc(/C(=C\\CN2CCCC2)c2ccccn2)cc1", "classAssignment": "inactive"}
{"compound": "OCC(O)CO", "classAssignment": "inactive"}
{"compound": "Brc1cc(Br)c(-c2cc(Br)c(Br)cc2Br)cc1Br", "classAssignment": "active"}
{"compound": "C=CCO", "classAssignment": "inactive"}
{"compound": "O=[N+]([O-])c1cc(N(CCO)CCO)ccc1NCCO", "classAssignment": "inactive"}
{"compound": "CCC1NC(=O)C2C(Cl)C(Cl)CN2C(=O)C(CO)NC(=O)CC(c2ccccc2)NC(=O)C(CO)NC1=O (centres undefined)", "classAssignment": "active"}
{"compound": "C1C2OC2C2C1C1CC2C2OC12 (centres undefined)", "classAssignment": "inactive"}
{"compound": "Nc1ccc2c(n1)[nH]c1ccccc12", "classAssignment": "active"}
{"compound": "C[C@H](CCc1ccccc1)NC[C@H](O)c1ccc(O)c(C(N)=O)c1", "classAssignment": "inactive"}
{"compound": "C=COC(N)=O", "classAssignment": "active"}
{"compound": "CC(=O)NCc1nc(-c2ccc([N+](=O)[O-])o2)no1", "classAssignment": "active"}
{"compound": "C=Cc1cccc[n+]1[O-]", "classAssignment": "inactive"}
{"compound": "CCN(CC)c1ccc(N=Nc2cc[n+]([O-])cc2)cc1", "classAssignment": "active"}
{"compound": "CN(C)C(=S)[S][Pb][S]C(=S)N(C)C", "classAssignment": "inactive"}
{"compound": "CC1CC(=O)O1 (centres undefined)", "classAssignment": "active"}
{"compound": "CCCCNN", "classAssignment": "active"}
